System: Plasmodium falciparum
Assay text: Confirmatory screen in NF54 pLDH assay, in single point, at 2uM, 72h
Format: functional, Erythrocyte
Run parameters: timepoint 72 hour
The campaign covered roughly 4,800 compounds. About 410 (8.5%) showed an effect of 50% or more. Only a selection was taken, and strong results are over-represented in it overall.
Threshold rule: % Inhibition greater than or equal to 10% is Criterion met; below that, Criterion not met.

Before answering, review these 5 worked examples.
| Compound | Class |
| --- | --- |
| CN(C)CCCNCc1ccc(Cl)cc1Cl | Criterion not met |
| COC1CCCC1NC(=O)Nc1ncc(Br)cc1C (configuration not stated) | Criterion met |
| Cn1cc(C(=O)NCC2CCN(S(=O)(=O)c3cccs3)CC2)cn1 | Criterion not met |
| O=C(NCCOc1cccc(F)c1)c1cccnc1NC1CCCC1 | Criterion not met |
| CCCC1CCC(c2ccc(-c3noc(-c4ccc(O)c(F)c4)n3)cc2)CC1 (configuration not stated) | Criterion not met |

Next up:
Problem: State whether the measured % Inhibition reaches 10%, counting equality as reaching it, for `Oc1ccc(-n2c(-c3ccccc3)ccc2-c2ccccc2)cc1`
Solution: Criterion met

====

System: Plasmodium falciparum
Assay text: Confirmatory screen in NF54 pLDH assay, in single point, at 2uM, 72h
Type: functional, Erythrocyte
Run parameters: timepoint 72 hour
In all, about 4,800 compounds went through this assay and about 410 (8.5%) showed an effect of 50% or more. For the sample, strong results were picked, then their nearest neighbours and some compounds at random.
Value kind: % Inhibition (%)
Dear colleague, please return just the value in %, with no unit written.

| Molecule | Result unit | % Inhibition |
| --- | --- | --- |
| COC(=O)C12CCC(C(=O)NC[C@H]3CCCOC3)(CC1)CC2 | % | 2 |
| COc1cc2c(cc1OC)CN(C(=O)c1cccc(N3C(=O)C(C)(C)CS3(=O)=O)c1)CC2 | % | 3 |
| O=C(c1cncc(Br)c1)N1CC[C@H](c2nc(C3CCOCC3)no2)C1 | % | 10 |
| CC(C)(C)NC(=O)CNC(=O)c1cccc(F)c1 | % | -8 |
| COc1ccc2ccccc2c1C(=O)Nc1ccc(N2CCN(C)CC2)c(Cl)c1 | % | 4 |
| CC(C)N(C)S(=O)(=O)Nc1ccc(Br)cc1O | % | 9 |
| Cc1cc(-c2nc(C3(c4ccncc4)CCC3)no2)ccn1 | % | 4 |
| Cc1cc(CN(C)c2cc(C3CC3)nc(N(C)Cc3cc(C)on3)n2)no1 | % | -11 |

Problem: Fill in the recorded % Inhibition for this molecule, with Plasmodium falciparum as test system: Brc1cnn(Cc2cnc(NC3C4CCOC4C34CCC4)s2)c1 (configuration not stated)
Solution: 4

Problem: Test system Plasmodium falciparum; read-out % Inhibition; what value for `CC1(C)C(=O)NCCN1C(=O)c1ccc2nccnc2c1` ?
Solution: 9

Problem: Value wanted: % Inhibition (Plasmodium falciparum) of entry `CCOc1ccc2ccccc2c1C(=O)Nc1cc(C)nn1-c1nc2c(c(=O)[nH]1)CCC2`
Solution: 91

Problem: Which % Inhibition is reported with Plasmodium falciparum for this entry: N#CCC(=O)NC1CCC(CC2CCC(NC(=O)CC#N)CC2)CC1 (configuration not stated) ?
Solution: -2

Problem: Under Plasmodium falciparum: % Inhibition value of `CC1(C)CCC(Nc2ccc(C(N)=O)nn2)CC1` ?
Solution: 92

Problem: Quick check: % Inhibition on Plasmodium falciparum, item `CN(Cc1ccc(-c2ccccc2)cc1)c1cc([C@H]2C[C@@H](N)C2)nc(N)n1` ?
Solution: 54

Problem: Enter reported % Inhibition observed with Plasmodium falciparum for `Cc1n[nH]c2ncc(NC(=O)c3ccc(CCC(F)(F)F)cc3)cc12`
Solution: 17

Problem: What value of % Inhibition on Plasmodium falciparum does `Cc1ccc(-c2nn3c([C@H]4CCCN(C)C4)nnc3s2)cc1C` have?
Solution: -8

Problem: What value of % Inhibition on Plasmodium falciparum does CC1CCC(c2noc([C@H]3CCO[C@@H]3c3cncc(Br)c3)n2)CC1 (some centres not stated) have?
Solution: 59

Problem: Enter reported % Inhibition observed with Plasmodium falciparum for `Cc1cc(CNC(=O)c2csc(=O)[nH]2)n(C)n1`
Solution: 12

Problem: Param readout= % Inhibition; system= Plasmodium falciparum; entry= `O=C(NC1CCN(Cc2ccccc2)CC1)c1cn[nH]c1-c1ccccc1` ; returns value.
Solution: 6

Problem: Give recorded % Inhibition with Plasmodium falciparum for the following molecule: Cc1cc(NC(=O)C(=O)NC2CC(C)CC(C)(C)C2)n(-c2nc3c(c(=O)[nH]2)CCC3)n1 (configuration not stated)
Solution: 84

Problem: Given the entry `COc1ccc(CCN[C@@H]2c3ccccc3C(=O)N2C2CCCCC2)cc1OC` , what % Inhibition was observed with Plasmodium falciparum?
Solution: 10

Problem: Identify the measured % Inhibition of `Cc1ccc(S(=O)(=O)CC(=O)NC(C)(C)C)cc1` for Plasmodium falciparum.
Solution: 5
